I'd appreciate it if you could supply melting point values for the items below.
Give just the number in °C; leave the unit off.

Tell us which melting point value is on record for "CC(=O)/C=C/c1ccc(CO)o1"
20

Please give the documented melting point of "O=C(O)/C=C/c1ccc(CO)o1"
138

Input "COC(=O)/C=C/c1ccc(CO)o1" , output reported melting point.
66

====

Record form. Attribute: activation at 2000 µM. Fill in for each entry.
Target: Hb (Homo sapiens, UniProt P68871+P69905, E7V)
Construct: Leftover blood samples from patients with homozygous SS were obtained and utilized; from tissue; host or cells: blood (red cells, then hemolysate) of patients with homozygous SS
Assay: Hb oxygen equilibrium study (P50 shift, Hemox Analyzer) on lysate of compound-treated SS cells
Format: cell-based
Conditions: 2 mM compound; intact SS cells; read-out: increase in Hb oxygen affinity (ΔP50)
Report as a plain number; the unit % is understood.

Report activation at 2000 µM for COc1cc(C=O)ccc1O [vanillin, reference compound]
12

Given "C=CC(=O)c1ccc(COc2ccccc2)o1" , respond with its activation at 2000 µM.
22

Fill in reported activation at 2000 µM for this entry: "NC(=O)C(=O)c1ncc[nH]1"
16.5

Read off the recorded activation at 2000 µM for CC(=O)/C=C/c1ncc[nH]1 [MMA-301, (E)-4-(1H-imidazol-2-yl)but-3-en-2-one]
12.7

Identify activation at 2000 µM associated with the compound O=Cc1ccc(CO)o1 [5-HMF, 5-Hydroxymethylfurfural]
33

Attribution: patent US11319292B2
